Assayed Target: Protein kinase 7 (PK7), Plasmodium falciparum 3D7 (PF3D7_0213400)
Assay Remarks: inhibition of Plasmodium PK7 catalytic activity – biochemical, TCAMS antimalarial set, Kinase-Glo luminescence (AID 1159587)
Measurement Parameters: recombinant PfPK7, Kinase-Glo ATP depletion luminescence
Active and inactive are the calls of the source. No rule for the calls is given here.
Measure Name: outcome

See these solved cases before continuing.
• Cc1ccc(Nc2nc3cc(Nc4ccnc(Nc5ccc(CS(C)(=O)=O)cc5)n4)ccc3o2)cc1 = inactive
• Cc1ccc(O)cc1Nc1ccnc2cc(-c3ccccc3)ccc12 = inactive
• COc1ccc(-c2ccc(CN(C)C3CCC(NC(=O)c4cc5ccccc5[nH]4)CC3)cc2)cn1 (stereo not given) = inactive
• Cc1cccc(CNc2nc(C)cc(NCCC(=O)NCc3cccc(F)c3)n2)c1 = inactive

In the following, a different molecule is considered.
Value lookup for outcome; key = CCCC(CNCc1ccc(Cl)c(C(F)(F)F)c1)CNc1nc2ccncc2[nH]1 (stereo not given)
inactive

###

Assay Remarks: human hepatoma cell viability loss – ATP luminescence, cytotoxicity control for P. falciparum antimalarial project, primary screen (AID 2303);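 also: 0% = DMSO wells and 100% = digitonin-killed cells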
Measurement Parameters: HepG2 viability, 24-48 h, at 10 µM, hits give high values
Lab note - cut at 10% for inhibition: t if strictly below, f if not.

inhibition under 10%? Item: CN(C)CCCNc1c2ccccc2nc2ccccc12
f

Next entry: CN(C)CCn1cc(C(=O)c2cc(Cl)ccc2O)cc1-c1nc2ccccc2c(=O)[nH]1
f

Next entry: CCN(CC)CCCC(C)Nc1c2cc(OC)ccc2nc2cc(Cl)c([N+](=O)[O-])cc12 (stereo not given)
f

Next entry: COc1cc2nccc(Nc3ccc(NC(=O)c4ccc(C)cc4)c(O)c3)c2cc1OC
f

Next entry: CCN1CCC(N2CCC(C(=O)Nc3cccc(-c4cccc(Cl)c4)c3)CC2)CC1
f

Next entry: COc1cccc(NC(=O)CSc2nc(-c3ccccc3Cl)ns2)c1
t

Next entry: CC(C)CNC(=O)c1cncc(-c2ccc(CN(C)C3CCN(C)CC3)cc2)c1
f

Next entry: COCc1nc(-c2ccccc2)nc(N2CCN(C(=O)NC(C)C)CC2)c1Cc1ccccc1F
f

Next entry: COc1cccc(NC(=O)[C@H](C)n2c(=O)[nH]c3ccccc3c2=O)c1
t

###

Assayed Target: Plasmodium falciparum protein kinase 6 (PK6, PF3D7_1337100)
Assay Remarks: PfPK6 kinase inhibitors, biochemical, TCAMS library (AID 1159586)
Measurement Parameters: recombinant PfPK6, Kinase-Glo ATP depletion luminescence
Results with a measured potency or affinity are listed apart. Activity calls are given as the source filed them. How the calls were made is not given here.
Measure Name: outcome

• O=C(/C=C/c1ccc(Cl)c(Cl)c1)N1CCC(CN2CCC(Cc3c[nH]c4ccccc34)CC2)CC1 = inactive
• CCOC(=O)c1cn(CC)c2cc(OCc3ccccc3)ccc2c1=O = inactive
• CC(C)CCNC(=O)C1Cc2c([nH]c3ccc(Br)cc23)C2(CCN(Cc3ccccc3)CC2)N1 (stereo not drawn) = inactive

###

Assay Remarks: human hepatoma cell viability loss – ATP luminescence, cytotoxicity control for P. falciparum antimalarial project, primary screen (AID 2303);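 also: 0% = DMSO wells and 100% = digitonin-killed cells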
Measurement Parameters: HepG2 viability, 24-48 h, at 10 µM, hits give high values
Lab note - cut at 10% for inhibition: fulfilled if strictly below, not fulfilled if not.

inhibition under 10%? Item: CN(C)CCCNCc1ccc(-c2ccc(C(F)(F)F)cc2)cc1
not fulfilled

Next entry: Fc1ccc(COc2ccc(Nc3ncnc4ccc(I)cc34)cc2Cl)cc1
not fulfilled

Next entry: Cc1[nH]c(C)c(-c2ccc(CCc3cccc(C(F)(F)F)c3)nc2)c(=O)c1Cl
not fulfilled

Next entry: CCC(C)CN1CCCN(c2ccc(NC(=O)c3cccs3)cc2)CC1 (centres undefined)
fulfilled

Next entry: NC(N)=NC(=O)Nc1ccc(Cl)c(Cl)c1
not fulfilled

Next entry: Cc1cc(N2CCN(CC3CCCCC3)CC2)nc(Nc2ccc(Br)cc2)n1
fulfilled

Next entry: O=C(NCc1ccc(F)cc1)Nc1ccc(-c2cccc(-c3nc4ccc(F)cc4[nH]3)c2)cc1
not fulfilled

Next entry: Cc1ccc2cc(NC(=O)c3cccc(C(=O)Nc4ccc5nc(C)ccc5c4)n3)ccc2n1
not fulfilled

Next entry: COCCNCc1cccc(-c2ccc(CNC3CCN(Cc4ccccc4)CC3)cc2)c1
not fulfilled

Next entry: CCCN(CCC)C(=O)c1cc(C(=O)N[C@@H](Cc2ccccc2)[C@H](O)CNC(C)(C)c2cccc(C(F)(F)F)c2)cc(N2CCCCS2(=O)=O)c1
not fulfilled

Next entry: Cc1ccc(Oc2ccc(CNc3nc(Nc4cccc(F)c4)nc(Nc4cccc(F)c4)n3)cc2)cc1
fulfilled

Next entry: COc1ccc(Cc2cccc(C(C(=O)NCc3cc(Cl)cc(Cl)c3)N3CCN(C)CC3)c2)cc1 (centres undefined)
fulfilled

Next entry: CC(Oc1ccc(Cl)cc1)C(=O)Nc1cc(C(F)(F)F)ccc1-n1cncn1 (centres undefined)
fulfilled

Next entry: Oc1ccc2nc(Nc3ccccc3)nc(NCCc3ccccc3)c2c1
not fulfilled

Next entry: O=c1ccc2ccc(F)c3c2n1CC3CN1CCC(NCc2cccc(-c3ccccc3F)c2)CC1 (centres undefined)
not fulfilled

Next entry: c1ccn2c(Sc3ncnc4sccc34)ncc2c1
fulfilled

Next entry: O=C(Cc1cccc(OCCCN(Cc2cccc(C(F)(F)F)c2Cl)CC(c2ccccc2)c2ccccc2)c1)NCc1ccco1
fulfilled

Next entry: Cc1cc(N)c2cc(NC(=O)c3cc(C(F)(F)F)cc(C(F)(F)F)c3)ccc2n1
not fulfilled

Next entry: COc1cc(NC(=O)/C=C/c2cc(F)cc(F)c2F)cc(OCCN2CCN(CCN3CCOCC3)CC2)c1
not fulfilled

Next entry: N#Cc1cccc(NC(=O)Nc2ccc3c(c2)CCN(C2CCC2)CC3)c1
not fulfilled

Next entry: FC(F)(F)c1ccc2nc(-c3ccc(-c4ccc(CNCCN5CCNCC5)cc4)cc3)[nH]c2c1
not fulfilled

Next entry: Cc1cc(C)n(-c2nc(Nc3cccc(C(F)(F)F)c3)nc(-n3nc(C)cc3C)n2)n1
fulfilled

Next entry: CC(C)N1CCN(c2ccc(OCCCCN3CCN(c4cccc(Cl)c4Cl)CC3)c(C(F)(F)F)c2)CC1
not fulfilled

Next entry: CC(=O)C1=NN(c2ccc(Cl)cc2)C(c2cccs2)N1c1ccccc1 (centres undefined)
fulfilled

Next entry: Cc1nc(N)nc(N)c1-c1cccc(Cl)c1
not fulfilled

Next entry: CN(Cc1cccc(F)c1)C1CCN(c2cc(NC(=O)c3cccc(F)c3)ccn2)CC1
not fulfilled

Next entry: O=C(Nc1ccc(S(=O)(=O)N2CCOCC2)cc1)c1cc(-c2cc(Cl)ccc2O)n[nH]1
not fulfilled

Next entry: CCCCc1ccc(Cc2cnc3nc(N)nc(N)c3c2C)cc1
not fulfilled

Next entry: OC(CNCCc1ccccc1)Cn1c2ccc(Cl)cc2c2cc(Cl)ccc21 (centres undefined)
not fulfilled

Next entry: O=C(NC1CCCCCC1)C1CCCN(C(=O)c2ccc(O)c(-c3ccc(Cl)c(Cl)c3)c2)C1 (centres undefined)
fulfilled

Next entry: Cc1cccc2[nH]c(-c3cccc(-c4cccc(NC(=O)CN5CCN(C)CC5)c4)c3)nc12
not fulfilled

Next entry: Cn1ccc(-c2cccc(Nc3ccnc4cc(-c5nccs5)ccc34)c2)n1
not fulfilled

Next entry: COc1ccc2cc(C(c3nnnn3CC3CCCO3)N3CCc4ccccc43)c(=O)[nH]c2c1 (centres undefined)
fulfilled

Next entry: CNC(=O)C1Cc2c([nH]c3c(C)cccc23)C2(N1)C(=O)Nc1ccc(OC(F)(F)F)cc12 (centres undefined)
fulfilled

Next entry: CCN(CC)CCCCNc1cc(-c2[nH]c(-c3c(Cl)cccc3Cl)nc2-c2ccc3cc(OC)ccc3c2)ccn1
not fulfilled

Next entry: CC(C)COc1ccc2ccccc2c1CNCCCCCCNCc1c(OCC(C)C)ccc2ccccc12
not fulfilled

Next entry: COc1ccc(C2CCN(CCCCNC(=O)c3ccc(NC(=O)c4ccc(Cl)cc4)cc3)CC2)cc1Cl
not fulfilled

Next entry: O=C(Nc1cc(F)cc(F)c1)NC1CCN(CCCCCNC(=O)[C@@H]2C[C@H]2c2ccc(Cl)c(Cl)c2)CC1
not fulfilled

###

Assay Remarks: inhibition of 3D7 malaria parasite growth – strain 3D7 (AID 2306);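 also: 0% = DMSO wells and 100% = chloroquine plus artemisinin control wells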
Measurement Parameters: P. falciparum 3D7 erythrocytic growth, LDH absorbance, 72 h; at 2 µM; hits give high values
Task for the reader: assign each of the following molecules its reported growth inhibition.
Write the value in % as a bare number.

Value lookup for growth inhibition; key = CCOc1ccccc1C(=O)N1CCc2cc3nccc(N4CCN5CCC[C@H]5C4)c3cc21
100

Next entry: CNCCNCc1ccc(-c2cccc(-c3nc4ccc(F)cc4[nH]3)c2)cc1
93

Next entry: O=C(C=Cc1ccc(F)cc1)N1CCN(S(=O)(=O)c2ccc(Cl)cc2)CC1
91

Next entry: CN1CCN(CCNc2c3ccccc3nc3c2ccc2ccccc23)CC1
101

Next entry: COc1ccc(NC(=O)CSc2nc(-c3ccccc3Cl)ns2)cc1
96

Next entry: CCC(C)OC(=O)C1=C(C)NC2=C(C(=O)CC(c3ccc(OC)c(OC)c3)C2)C1c1ccc(C)o1 (centres undefined)
93

Next entry: C=CCC(CC=C)N1C(=O)C(c2ccccc2)(c2ccccc2)N=C1N
98

Next entry: COc1ccc2nccc([C@@H](O)CN3CCC(NCc4ccc5cccc(O)c5n4)CC3)c2n1
94

Next entry: COc1ccc2nc(-c3ccc(C(=O)NCCCN4CCN(c5cc(Cl)ccc5OC)CC4)cc3OC)[nH]c2c1
101

Next entry: CC(=O)N(C)c1ccc(C(=O)Nc2cccc(-c3cccc(-c4nc5c(C)cccc5[nH]4)c3)c2)cc1
89

Next entry: Cc1cc(C2CCN(CCCCNC(=O)c3ccc(-c4ccc(C(F)(F)F)cc4)cc3)CC2)c(C)cc1OCC(N)=O
91

Next entry: CCc1cc2c(=O)c(-c3nc(C)cs3)c([C@H](N)Cc3ccc(O)cc3)oc2cc1O
101

Next entry: C#CCCC(=O)Nc1cccc(-c2cccc(-c3nc4ccc(C(F)(F)F)cc4[nH]3)c2)c1
90

Next entry: O=S(=O)(c1ccc(OCc2ccc(Cl)cc2)cc1)c1cc2c(cc1OCc1ccccc1)CCN(C1CCC1)CC2
89

Next entry: O=C(Nc1ccc(Cl)cc1)c1ccc(CN2CCCN(Cc3ccccc3)CC2)cc1
96

Next entry: COc1ccc2c(NN=Cc3ccc([N+](=O)[O-])cc3)ccnc2c1
100

Next entry: c1ccc(-c2nc(Nc3ccncc3)sc2-c2ccccc2)cc1
97

Next entry: C=C(C)C1CC=C(CN2CCC(N3CCc4cc(NC(=O)c5cc(C)on5)ccc43)C2)CC1 (centres undefined)
90

Next entry: CCCCCC(C)c1cc(O)c2c(c1)OC(C)(C)C=C2C1=CCN(Cc2ccccc2)CC1 (centres undefined)
96
